targetOrTestSystem: Glycogen synthase kinase-3 (Homo sapiens, UniProt P49840+P49841)
Assay type: protein assay
assayReadout: IC50 (µM)

structureString	unitOfMeasurement	IC50
COC[C@@H](CC(C)C)NC1=N/C(=C\c2ccc3ncsc3c2)C(=O)N1C	µM	4.481

A = CC(C)C[C@H](CO)NC1=N/C(=C\c2ccc3ncsc3c2)C(=O)N1
B = COC[C@@H](CC(C)C)NC1=N/C(=C\c2ccc3ncsc3n2)C(=O)N1
C = CCN1C(=O)/C(=C/c2ccc3ncsc3c2)N=C1N[C@@H](COC)CC(C)C
Q: Rank ascending by IC50. API: response body holds the labels in the requested order.
Result: A, B, C

---

Please consider the recorded IC50 for Dual specificity tyrosine-phosphorylation-regulated kinase 1B (Homo sapiens) in what follows.
assayReadout: IC50 (nM)

Field: example entries. Status: answers known.
structureString	assayValue
COC[C@@H](CC(C)C)NC1=N/C(=C\c2ccc3[nH]ncc3c2)C(=O)N1	115
COC[C@@H](CC(C)C)NC1=N/C(=C\c2ccc3c(c2)CCO3)C(=O)N1C	170

P = COC[C@@H](CC(C)C)NC1=N/C(=C\c2ccc3[nH]ncc3c2)C(=O)N1C
Q = COC[C@@H](CC(C)C)NC1=N/C(=C\c2ccc3c(ccn3C)c2)C(=O)N1
Q: Which item exceeds the other in IC50, P or Q ? Respond with the label that goes with your answer.
Result: Q
(Q: 8170 nM, P: 134 nM)

---

pIC50: −log10 of the molar value.
Please consider the recorded pIC50 for Dual specificity protein kinase CLK2 (Homo sapiens, UniProt P49760) in what follows.
assayReadout: pIC50

A = COC[C@@H](CC(C)C)NC1=N/C(=C\c2ccc3ncsc3c2)C(=O)N1C1CCCC1
B = COC[C@@H](CC(C)C)NC1=N/C(=C\c2ccc3ncsc3c2)C(=O)N1C1CC1
Q: Which item exceeds the other in pIC50, A or B ? Respond with the label that goes with your answer.
Result: B

---

targetOrTestSystem: Dual specificity protein kinase CLK4 (Homo sapiens)
Sequence (Q9HAZ1 whole entry): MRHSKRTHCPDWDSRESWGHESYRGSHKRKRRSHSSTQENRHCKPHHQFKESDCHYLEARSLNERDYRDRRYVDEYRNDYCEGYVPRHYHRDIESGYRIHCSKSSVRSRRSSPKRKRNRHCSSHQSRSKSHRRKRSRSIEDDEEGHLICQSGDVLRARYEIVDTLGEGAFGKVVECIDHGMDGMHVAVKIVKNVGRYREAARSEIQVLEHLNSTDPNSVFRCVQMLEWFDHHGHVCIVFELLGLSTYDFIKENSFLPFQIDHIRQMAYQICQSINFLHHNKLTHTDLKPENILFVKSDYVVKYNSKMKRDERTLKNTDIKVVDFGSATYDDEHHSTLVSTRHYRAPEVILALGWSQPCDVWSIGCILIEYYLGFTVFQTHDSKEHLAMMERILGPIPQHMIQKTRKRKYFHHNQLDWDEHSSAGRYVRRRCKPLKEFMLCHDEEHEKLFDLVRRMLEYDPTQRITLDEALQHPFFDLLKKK
assayReadout: IC50 (nM)

a = COC[C@@H](CC(C)C)NC1=N/C(=C\c2ccc3ncsc3c2)C(=O)N1C1CCCC1
b = COC[C@@H](CC(C)C)NC1=N/C(=C\c2ccc3[nH]ncc3c2)C(=O)N1C
c = COC[C@@H](CC(C)C)NC1=N/C(=C\c2ccc3c(c2)OCO3)C(=O)N1
Q: Order the above molecules by increasing IC50. API: response body holds the labels in the requested order.
Result: c, b, a

---

Please consider the recorded IC50 for Dual specificity protein kinase CLK4 (Homo sapiens) in what follows.
assayReadout: IC50 (µM)

Field: example entries. Status: answers known.
structureString	targetOrTestSystem	unitOfMeasurement	IC50
COC[C@@H](CC(C)C)NC1=N/C(=C\c2ccc3nc(C)sc3c2)C(=O)N1	Dual specificity protein kinase CLK4 (Homo sapiens)	µM	0.0527
COC[C@@H](CC(C)C)NC1=N/C(=C\c2ccc3[nH]ncc3c2)C(=O)N1	Dual specificity protein kinase CLK4 (Homo sapiens)	µM	0.245
COC[C@@H](CC(C)C)NC1=N/C(=C/c2ccc3ncoc3c2)C(=O)N1C	Dual specificity protein kinase CLK4 (Homo sapiens)	µM	0.0163
COC[C@@H](CC(C)C)NC1=N/C(=C\c2ccc3ncsc3c2)C(=O)N1C1CCC1	Dual specificity protein kinase CLK4 (Homo sapiens)	µM	1.21
COC[C@@H](CC(C)C)NC1=N/C(=C\c2ccc3c(cnn3C)c2)C(=O)N1	Dual specificity protein kinase CLK4 (Homo sapiens)	µM	0.189

A = O=C1NC(Nc2ccccc2)=N/C1=C\c1ccc2c(c1)OCO2
B = COC[C@@H](CC(C)C)NC1=N/C(=C\c2ccc3nnsc3c2)C(=O)N1C
Q: Which item exceeds the other in IC50, A or B ? Respond with the label that goes with your answer.
Result: B
(B: 0.861 µM, A: 0.01 µM)
